Biological target: Activated human plasma kallikrein (Enzyme Research Laboratories, HPKa 1303) (human, UniProt P03952 20-638)
Sequence (P03952 20-638 limits assumed): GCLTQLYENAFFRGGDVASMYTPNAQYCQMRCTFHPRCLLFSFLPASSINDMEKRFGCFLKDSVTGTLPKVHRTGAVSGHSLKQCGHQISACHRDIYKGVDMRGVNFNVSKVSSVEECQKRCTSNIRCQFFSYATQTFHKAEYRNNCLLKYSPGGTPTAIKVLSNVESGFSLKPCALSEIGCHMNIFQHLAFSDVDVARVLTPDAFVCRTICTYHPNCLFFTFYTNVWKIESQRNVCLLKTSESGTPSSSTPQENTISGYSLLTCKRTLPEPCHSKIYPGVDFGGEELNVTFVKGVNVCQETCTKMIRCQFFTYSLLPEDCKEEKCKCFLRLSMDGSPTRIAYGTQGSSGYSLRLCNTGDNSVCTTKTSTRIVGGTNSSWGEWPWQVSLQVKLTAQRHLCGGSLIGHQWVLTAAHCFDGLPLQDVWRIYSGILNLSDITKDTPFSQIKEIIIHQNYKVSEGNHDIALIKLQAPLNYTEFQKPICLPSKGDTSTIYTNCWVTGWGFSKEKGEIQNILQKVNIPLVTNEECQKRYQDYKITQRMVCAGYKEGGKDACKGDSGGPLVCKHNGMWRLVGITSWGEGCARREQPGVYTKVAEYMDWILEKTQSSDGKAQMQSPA
Assay: cell-based or functional assay
Bridge positions count the residues as written; N and C are the ends. Square brackets hold non-standard residues; d marks the D form. Ends that are not written are not given here. mXylyl = xylyl linker from dibromoxylene joining the two cysteines; Gly(cPr) = N[C@H](C(=O)O)C1CC1
Avg. IC50 values, listed per item
Field note: include the unit after the figure.

[[record]]
binder = "MCESACRV-NH2 (linker 2-6 via mXylyl) [R2017]"
reported_endpoint = "Avg. IC50"
observed_value = "2.14 µM"


Query string: // returns reported Avg. IC50 for input Ac-CSICRV-NH2 (linker 1-4 via mXylyl) [R2037]
Result string: 0.41 µM

Query string: // returns reported Avg. IC50 for input Ac-CAS[Gly(cPr)]CRV-NH2 (linker 1-5 via mXylyl; not fully specified (residue 2); printed as [mXylyl(1,5)]Ac-C-a-S-Cppg-CRV-NH2) [R2062]
Result string: 2.47 µM

The values you see were collected from patent US20150166606A1.
